# Tested on: SR leukemia
# assay protocol: NCI tumour cell line growth inhibition, 48 h
A collection of compounds and their measured TGI
# value in µM; strip the unit string

1. C=C(CN1CCc2[nH]c3ccc(F)cc3c2C1)c1ccc(C(=O)Nc2ccccc2N)cc1	20.1

Incoming: # input compound: CC(=O)NC1C(O[C@H]2C[C@H]3[C@@H]4CC=C5C[C@@H](O)CC[C@]5(C)[C@H]4CC[C@]3(C)[C@H]2[C@H](C)C(=O)CCC(C)C)OCC(O)C1O (some centres undefined) ; wanted: its TGI
Outgoing: 22.8

Incoming: # input compound: CC(C)(CN1CCCCC1)C(=O)/C=C/c1ccc(Br)cc1 ; wanted: its TGI
Outgoing: 7.68

Incoming: # input compound: COc1ccc2nc3cc(Cl)ccc3c(NC(C)CCCN(CCCl)CCCl)c2c1 (centres undefined) ; wanted: its TGI
Outgoing: 0.502

====

A collection of molecules and their measured TGI
# Tested on: SN12C renal
# assay protocol: NCI tumour cell line growth inhibition, 48 h
# value in µM; strip the unit string

1. CCOC(=O)/C(=C/c1ccccn1)C(=O)c1ccccc1	27.2
2. CC(=O)NC1C(O[C@H]2C[C@H]3[C@@H]4CC=C5C[C@@H](O)CC[C@]5(C)[C@H]4CC[C@]3(C)[C@H]2[C@H](C)C(=O)CCC(C)C)OCC(O)C1O (some centres undefined)	26.6
3. COC(=O)[C@@]12OC[C@]34C([C@@H](O)C1O)[C@@]1(C)CC(=O)C(OC(=O)CC(C)C(F)(F)F)=C(C)C1C[C@H]3OC(=O)[C@H](O)[C@H]42 (some centres undefined)	21.2

Incoming: # input molecule: CN=c1sc2c(n1C)C(=O)c1ccccc1C2=O ; wanted: its TGI
Outgoing: 3.05

====

# System: OVCAR-4 ovarian
# assay protocol: NCI tumour cell line growth inhibition, 48 h; in the data active = GI50 below about 0.43 µM; inactive = the rest
One label from this list, please: active, inactive

Previously resolved entries follow.
1. Nc1nc(=S)c2ncn(C3OC(COP(=O)(O)O)C(O)C3O)c2[nH]1 (stereo not given)	inactive
2. CC(=O)Oc1ccc(C2=Cc3ccc(OC(C)=O)cc3OC2C)cc1 (stereo not given)	inactive
3. OCC1CC[N-]CC1.OCC1CC[N-]CC1.[Cl][Pt+2]([Cl])([Cl])[Cl]	inactive
4. O=C(c1cccs1)c1c(C(F)(F)F)n([O-])c2cc(Cl)c(Cl)cc2[n+]1=O	inactive
5. COc1cc(-c2nccc3[nH]c(-c4ccc5cc[nH]c5c4)nc23)cc(OC)c1OC	active

Incoming: Recorded test call requested for [O]=[V]([OH])([OH])[OH]
Outgoing: inactive

Incoming: Recorded test call requested for COc1ccc(/C=C2\CCC/C(=C\c3ccc(OC)c(OC)c3)C2=O)cc1OC
Outgoing: inactive

Incoming: Recorded test call requested for C=CCN(CC=C)C(=O)c1cc(C)nc2c1c(=O)n(-c1ccccc1)c(=O)n2CCCN1CCN(c2ccccc2OC)CC1
Outgoing: inactive

Incoming: Recorded test call requested for Cc1cc(Br)c(NC(=O)c2c(-c3c(Cl)cccc3Cl)noc2C)c(Br)c1
Outgoing: inactive

Incoming: Recorded test call requested for COc1cc(C(=O)/C=C/c2cccc(Nc3ccnc4cc(Cl)ccc34)c2)cc(OC)c1OC
Outgoing: inactive

Incoming: Recorded test call requested for COc1ccc(C(O)c2cc3c(N)c(C(=O)Nc4cccc5ccccc45)sc3nc2C)cc1 (stereo not given)
Outgoing: inactive

====

# Test system: HL-60(TB) leukemia
# assay protocol: NCI tumour cell line growth inhibition, 48 h
quantity measured: TGI

1. Cc1c(C)c2c(c(N)c1C#N)C(=O)N(Cc1ccc(S(N)(=O)=O)cc1)C2=O	> 100 µM
2. Cc1nc2c(sc3nc4c(cc32)CCC4)c(=O)o1	> 100 µM

Incoming: Request body: readout TGI, system HL-60(TB) leukemia, query C=C1CC[C@@H](CCC2CCC3(OC2)O[C@]2(O)CC[C@@]3(C)OC2(C)C)C(C)(C)[C@H]1C/C=C1\CCOC1=O (some centres undefined) . Return the value.
Outgoing: 17 µM

Incoming: Request body: readout TGI, system HL-60(TB) leukemia, query O=C1c2cc3c(cc2-c2c1c1ccc(Cl)cc1c(=O)n2C[C@H](O)CO)OCO3 . Return the value.
Outgoing: 3.1 µM

====

# System: NCI-H226 lung
# assay protocol: NCI tumour cell line growth inhibition, 48 h
A collection of molecules and their measured TGI
# value in µM; strip the unit string

Below: 3 molecules and their reported TGI.
1) C#Cc1ccc(-n2c(/C=C/c3ccc(O)cc3)nc3ncccc3c2=O)cc1	13.1
2) C[C@H]1CC[C@@]2(OC1)O[C@H]1C[C@H]3[C@@H]4CC[C@@H]5C[C@@H](OC6OC(CO)C(O)C(O)C6OC6OC(CO)C(O)C(O)C6O)CC[C@]5(C)[C@H]4CC[C@]3(C)[C@H]1[C@@H]2C (stereo partly specified)	4.2
3) CCSCC1CC(O)(c2ccccc2)C(c2ccccc2)C(c2ccc(F)cc2)O1 (stereo unspecified)	4.89

Incoming: Request body: readout TGI, system NCI-H226 lung, query COc1ccc2nc3cc(Cl)ccc3c(NC(C)CCCN(CCCl)CCCl)c2c1 (stereo unspecified) . Return the value.
Outgoing: 3.44

Incoming: Request body: readout TGI, system NCI-H226 lung, query CC(C)Cc1ccc(C(C)/C=C2\CCC(CN(C)C)C2=O)cc1 (stereo unspecified) . Return the value.
Outgoing: 46.4

====

A collection of compounds and their measured TGI
# System: SK-MEL-28 melanoma
# assay protocol: NCI tumour cell line growth inhibition, 48 h
# value in µM; strip the unit string

Below: 8 compounds and their reported TGI.
1. S=C1Cc2c(-c3ccccc3)cc(-c3cccc(Cl)c3)nc2-c2ccccc2N1	51.8
2. N#CC(C#N)=C/C=C(\Sc1ccc(Cl)cc1)c1ccc(F)cc1	19.3
3. Cc1cnc(C(=O)NNc2nc3sc4c(c3c(=O)[nH]2)C(C)CCC4)cn1 (stereo unspecified)	29.6
4. C[C@@H]1CC[C@]2(C)C3(C)CC[C@]2(OC3=O)[C@@]12CC(c1ccoc1)OC2=O (stereo partly specified)	66.3
5. CC(C)Cc1ccc(C(C)/C=C2\CCC(CN(C)C)C2=O)cc1 (stereo unspecified)	30.4
6. COC(=O)c1cc2c(cc1Cl)Sc1nnc(Nc3ccccc3)n1S2(=O)=O	10.5
7. CNCc1ccc(-c2cc(-c3nc(-c4ccc(S(=O)(=O)C(C)C)cc4)cnc3N)on2)cc1	3.21
8. CCc1ccc(Nc2cc(C)c3ccc(O)cc3n2)cc1	24.7

// moving on: another record for TGI
Incoming: # input compound: CCN1CCC(O)(c2ccc([N+](=O)[O-])cc2)C(C(=O)c2ccc([N+](=O)[O-])cc2)C1 (stereo unspecified) ; wanted: its TGI
Outgoing: 33.5

====

# Test system: CCRF-CEM leukemia
# assay protocol: NCI tumour cell line growth inhibition, 48 h; in the data active means GI50 below about 0.43 µM; inactive means the rest
One label from this list, please: active, inactive

Previously resolved entries follow.
1) COCCN(Cc1ccc(F)cc1)c1ccc(CO)c(Cl)c1	inactive
2) C#Cc1ccc(-n2c(/C=C/c3ccc(O)cc3)nc3ncccc3c2=O)cc1	inactive
3) COc1ccccc1CNCCN1C(=O)c2ccc3c4c(ccc(c24)C1=O)C(=O)N(CCNCc1ccccc1OC)C3=O	active
4) CC(C)[C@@H]1CC[C@]2(CO2)[C@@H]2C(=O)OCC(C(=O)O)=C[C@H]21	active
5) O=C(Nc1ccc(OC(F)(F)Cl)cc1)c1cnc(N2CC[C@@H](O)C2)c(-c2ccn[nH]2)c1	inactive
6) Nc1nccc(-c2c(-c3ccc(F)cc3)nn3cc(C(F)(F)F)ccc23)n1	inactive
7) O=C(O)CN(CCN(CC(=O)O)CC(=O)O)CC(=O)O.[Mn+2]	inactive

Consider now this further compound.
Incoming: Recorded test call requested for CCCCS(=O)c1sc2nc(-c3cccs3)cc(-c3ccccc3)c2c1N (stereo not drawn)
Outgoing: inactive

====

# System: HCT-116 colon
# assay protocol: NCI tumour cell line growth inhibition, 48 h
quantity measured: TGI (µM)
# value in µM; strip the unit string

1. O=S(=O)(/N=C(\NO)Nc1ccc(Cl)cc1)c1cc(C(F)(F)F)cc(C(F)(F)F)c1	31.2
2. CC(SC(=S)N1CCOCC1)C(=O)Nc1nnc(-c2ccc(Cl)cc2)o1 (centres undefined)	67.5
3. CCc1cccc(CC)c1NC(=O)/C(Cl)=C(/Cl)C(=O)O	50.3
4. O=C(Nc1ccc(OC(F)(F)Cl)cc1)c1cnc(N2CC[C@@H](O)C2)c(-c2ccn[nH]2)c1	23.9
5. CC(C)C(Cl)CCC(C)(Cl)C(=O)CBr (centres undefined)	9.06
6. COc1ccc(-c2nc3ccc(Cc4ccc5nc(-c6ccc(OC)cc6)[nH]c5c4)cc3[nH]2)cc1	0.14
7. C=C(CN1CCc2[nH]c3ccc(F)cc3c2C1)c1ccc(C(=O)Nc2ccccc2N)cc1	5.04
8. COC(=O)c1cc2c(cc1Cl)Sc1nnc(Nc3ccccc3)n1S2(=O)=O	14.7

// moving on: another record for TGI
Incoming: # input compound: CCN(CC)c1ccc2nc3ccc(=[N+](CC)CC)cc-3oc2c1 ; wanted: its TGI
Outgoing: 1.27
